# Target or test system: UniProt:P61964
# Protocol text: Surface Plasmon Resonance (SPR) assay, KD and residence time
# Assay type: binding
# Condition description: surface plasmon resonance (SPR) assay; read-out: WDR5 binding affinity (KD)
Quick list: pKd per entry.
Note: pKd values are expressed as the negative base-10 logarithm of concentration in M.

# Molecule, pKd
measured = [
    ("CC1CN(c2cc(Cl)c(-c3cnc(N4CCOCC4)nc3)cc2NC(=O)c2c[nH]c(=O)cc2C(F)(F)F)CCN1C (stereo in doubt) [Example 81]", 7.95),
]

query: Consider the molecule CC1CN(c2cc(F)c(-c3cnc(N4C[C@@H](C)O[C@@H](C)C4)nc3)cc2NC(=O)c2cn(C)c(=O)cc2C(F)F)CCN1C (stereo in doubt) [Example 383] and give its measured pKd.
result: 8.92

query: pKd for COc1cc(-c2cc(NC(=O)c3c[nH]c(=O)cc3C(F)(F)F)c(N3C[C@@H](C)N(C)[C@@H](C)C3)cc2F)cc(C(F)(F)F)n1 [Example 134] ?
result: 9.00

query: Requested read-out: pKd. Entry: C[C@@H]1CN(c2cc(F)c(-c3cnc(N4CCOCC4)nc3)cc2NC(=O)c2cccc(O)c2)C[C@H](C)N1C [Example 281]
result: 7.54

----------
Below is a list of entries, each paired with its recorded Kd value.
# Target or test system: WDR5 (Homo sapiens (Human), UniProt P61964)
# Protocol text: Surface Plasmon Resonance (SPR) assay, KD and residence time
# Format: binding
# Condition description: surface plasmon resonance (SPR); read-out: WDR5 binding affinity (KD)
// return numeric value only (unit: nM, not printed)

Please review the following examples before continuing.
# Molecule, Target or test system, Numeric value
records = [
    ("CC(C)OC(=O)N1CCC=C(c2cc(NC(=O)c3c[nH]c(=O)cc3C(F)F)c(N3C[C@@H](C)N(C)[C@@H](C)C3)cc2F)CC1 [Example 723]", "WDR5 (Homo sapiens (Human), UniProt P61964)", 3.12),
    ("C[C@@H]1CN(c2cc(F)c(C3=CCN(c4ncc(C#N)s4)CC3)cc2NC(=O)c2c[nH]c(=O)cc2C(F)F)C[C@H](C)N1C [Example 685]", "WDR5 (Homo sapiens (Human), UniProt P61964)", 2.23),
    ("C[C@@H]1CN(c2cc(F)c(-c3csc(C(=O)NC4CCCCC4)n3)cc2NC(=O)c2cn(C)c(=O)cc2C(F)(F)F)C[C@H](C)N1C [Example 525]", "WDR5 (Homo sapiens (Human), UniProt P61964)", 5.42),
    ("COCCN(C)[C@@H]1CCN(c2cc(F)c(-c3cnc(N4CCOCC4)nc3)cc2NC(=O)c2c[nH]c(=O)cc2C(F)(F)F)C1 [Example 578]", "WDR5 (Homo sapiens (Human), UniProt P61964)", 16.9),
    ("CC1COCCN1c1ncc(-c2cc(NC(=O)c3cn(C)c(=O)cc3C(F)F)c(N3C[C@@H](C)N(C)[C@@H](C)C3)cc2F)cn1 (stereo in doubt) [Example 475]", "WDR5 (Homo sapiens (Human), UniProt P61964)", 3.52),
]

query: Please provide the recorded Kd for CC1CN(c2cc(F)c(-c3cnn(CCN4CCOCC4)c3)cc2NC(=O)c2c[nH]c(=O)cc2C(F)(F)F)CCN1C (stereo in doubt) [Example 714] , tested on WDR5 (Homo sapiens (Human), UniProt P61964).
result: 2.76

query: Hi! What's the reported Kd for CC1CN(c2cc(F)c(-c3csc(N4CCOCC4)n3)cc2NC(=O)c2c[nH]c(=O)cc2C(F)(F)F)CCN1C (stereo in doubt) [Example 617] on WDR5 (Homo sapiens (Human), UniProt P61964)?
result: 558000

query: Observed Kd on WDR5 (Homo sapiens (Human), UniProt P61964) for CC(C)OC(=O)N1CCC=C(c2cc(NC(=O)c3c[nH]c(=O)cc3C(F)F)c(N3CCN(C)C(C)C3)cc2F)C1 (stereo in doubt) [Example 726] , please.
result: 2.1
